Can you tell me self-cleavage for the items I'm about to list?
B1: Twister Ribozyme (parent)
chain: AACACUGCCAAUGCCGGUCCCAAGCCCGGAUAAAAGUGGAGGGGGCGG

Variants of: B1
Experiment: self-cleavage, relative activity (ratio to wild type); higher = more cleavage; co-transcriptional

Indicate the recorded self-cleavage value for this variant: C3A G44A
0.221

Indicate the recorded self-cleavage value for this variant: G28C A32C
0.728

Indicate the recorded self-cleavage value for this variant: G28U G45C
0.175

Indicate the recorded self-cleavage value for this variant: C25U U31A
0.666

Indicate the recorded self-cleavage value for this variant: G28C G42C
0.296

Indicate the recorded self-cleavage value for this variant: A10C C20G
0.0778

Indicate the recorded self-cleavage value for this variant: G16A G48A
0.979

Indicate the recorded self-cleavage value for this variant: A2U A22U
0.11

Indicate the recorded self-cleavage value for this variant: A4C C5G
0.0446
